Assay: Drug excretion in Sprague-Dawley rat urine at 2.9 mg/kg, iv up to 24 hrs by LC-MS analysis
Format: ADME, organism-based
Settings: read-out: Drug excretion
PROPERTY MEASURED: dose excreted at 24 h (%)

>>> data_value("COc1ncc(-c2nc(C(=O)NC(=N)N)c(N)nc2N)cn1")
36.4

* * *

Assay: Half life in Sprague-Dawley rat at 2.5 mg/kg, iv up to 24 hrs by LC-MS analysis
Assay type: ADME, organism-based
Settings: in vivo
PROPERTY MEASURED: half-life (h)

>>> data_value("N=C(N)NC(=O)c1nc(Cl)c(N2CCCCCC2)nc1N [N,N-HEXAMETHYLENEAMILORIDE]")
3.2
